- Target entity: cyclin E/CDK2 enzyme (Homo sapiens)
- Construct: made in house; host or cells: Sf9 insect cells, recombinant baculovirus
- Assay method text: CDK2 ELISA kinase assay (phospho-Rb ser 795 detection)
- Format: biochemical
- Condition description: In Vitro Enzyme Assays, read-out: CDK2 IC50
Strictly below 3 µM in IC50: Y. Otherwise: N.

The examples below pair each entry with its known result.
Asked: Record COc1ccc(CN/C=C2\C(=O)NC(=O)c3ccc(-c4ccc(F)cc4)cc32)cc1O : is its IC50 strictly below 3 µM?
Given back: N

Asked: Record O=C1NC(=O)c2ccc(-n3cccc3)cc2C1=CNCc1cc(=O)c(O)co1 : is its IC50 strictly below 3 µM?
Given back: N

Asked: Please state whether IC50 is below 3 µM for O=C1NC(=O)c2ccc(Br)cc2/C1=C/NCc1cc(O)c(O)c(O)c1
Given back: Y

Asked: I wonder whether O=C1NC(=O)c2ccc(Br)cc2/C1=C/Nc1ccc(N2CCC(N3CCCC3)CC2)nc1 has IC50 below 3 µM. Can you tell?
Given back: N

Asked: Strictly below 3 µM in IC50? COc1ccc(-c2ccc3c(c2)/C(=C/Nc2ccc(N4C[C@@H](C)N[C@@H](C)C4)c(F)c2)C(=O)NC3=O)cc1
Given back: N

Next:
Asked: Quick check: IC50 of COc1ccc2c(c1)/C(=C/NCc1ccc(OC)c(O)c1)C(=O)NC2=O under 3 µM?
Given back: Y

Asked: Is IC50 of O=C1NC(=O)c2ccc(-c3ccc(Cl)s3)cc2/C1=C/Nc1ccc(CN2CCC[C@H]2CO)cc1 strictly below 3 µM?
Given back: N

Asked: Does the reported IC50 of the following compound sit strictly below 3 µM? C[C@@H]1CN(c2ccc(N/C=C3\C(=O)NC(=O)c4ccc(Br)cc43)cc2)C[C@H](C)N1C
Given back: N
